Tested on: FT3469 (normal neural stem cell line);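 note: nuclei counted by high-content imaging of Hoechst-stained cells in laminin-coated 384-well plates, relative to 0.1% DMSO vehicle wells, with staurosporine as cell-death control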
Assay: surviving fraction (nuclei count normalised to DMSO); higher = more cells surviving (less toxic)
Settings: 111.1111111 nM; exposure time: 72 h
Structures can show the parent of a compound that is named as a salt.
I'd be grateful if you could share measured surviving fraction for these entries.
Number only, please.

Challenge: Item Cc1[nH]nc(C(F)(F)F)c1Cc1sc2c(c1C(=O)N1C[C@](C)(O)CO1)c(=O)n(C)c(=O)n2C(C)C has what recorded surviving fraction?
Response given: 1.07

Challenge: // same read-out, input: CC(C)C[C@H](NC(=O)[C@H](Cc1ccccc1)NC(=O)c1cnccn1)B(O)O
Response given: 0.161

Challenge: // same read-out, input: COC(=O)Nc1nc2cc(C(=O)c3cccs3)ccc2[nH]1
Response given: 0.474

Challenge: // same read-out, input: O=C(O)c1ccc(-c2c[nH]c3ncc(-c4ccccc4)cc23)cc1C1CCCC1
Response given: 0.987

Challenge: // same read-out, input: Cc1cc(C)c(CN2CCc3c(Cl)cc(-c4c(C)noc4C)c(Cl)c3C2=O)c(=O)[nH]1
Response given: 1.05

Challenge: // same read-out, input: O=[N+]([O-])c1ccc2c(c1)S(=O)(=O)C=C2
Response given: 0.73

Challenge: // same read-out, input: C/C=C(\C)C(=O)N[C@@H](c1ccccc1)[C@@H](O)C(=O)O[C@H]1C[C@@]2(O)[C@@H](OC(=O)c3ccccc3)[C@@H]3[C@]4(OC(C)=O)CO[C@@H]4C[C@H](O)[C@@]3(C)C(=O)[C@H](OC(C)=O)C(=C1C)C2(C)C
Response given: 0.441

Challenge: // same read-out, input: COc1cc2nc(N3CCN(C(=O)c4ccco4)CC3)nc(N)c2cc1OC [Prazosin hydrochloride]
Response given: 1.05

====

I'd be grateful if you could share measured phenotypic distance for these entries.
Test system: E28 (patient-derived glioblastoma stem cells of classical subtype);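 note: cell Painting imaging in 384-well plates, CellProfiler features reduced to at least 20 principal components, Euclidean distance versus same-plate DMSO vehicle wells (0.1% v/v), median over six images per well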
Experiment: phenotypic distance (Euclidean, principal components) from DMSO controls (arbitrary units); higher = stronger morphological change
Settings: 37 nM; exposure time: 72 h
Structures can show the parent of a compound that is named as a salt.
Number only, please.

Challenge: Item COC(=O)Nc1nc2cc(Sc3ccccc3)ccc2[nH]1 has what recorded phenotypic distance?
Response given: 0.965

Challenge: // same read-out, input: CC(C)C[C@H](NC(=O)[C@H](CCc1ccccc1)NC(=O)CN1CCOCC1)C(=O)N[C@@H](Cc1ccccc1)C(=O)N[C@@H](CC(C)C)C(=O)[C@@]1(C)CO1
Response given: 6.26

Challenge: // same read-out, input: COc1cc(OC)c(C(=O)CCCN2CCCC2)c(OC)c1 [Buflomedil hydrochloride]
Response given: 0.611

Challenge: // same read-out, input: N=C(NCCCCCCNC(=N)NC(=N)Nc1ccc(Cl)cc1)NC(=N)Nc1ccc(Cl)cc1
Response given: 0.865

Challenge: // same read-out, input: CC(C)NCC(O)c1cc(O)cc(O)c1 (stereo unspecified) [Metaproterenol sulfate, orciprenaline sulfate]
Response given: 0.677

Challenge: // same read-out, input: CC[C@]1(O)C[C@@H]2CN(CCc3c([nH]c4ccccc34)[C@@](C(=O)OC)(c3cc4c(cc3OC)N(C)[C@H]3[C@@](O)(C(=O)OC)[C@H](OC(C)=O)[C@]5(CC)C=CCN6CC[C@]43[C@@H]65)C2)C1 [Vinblastine sulfate]
Response given: 4.99
